- assayDetails: The drug is tested on Bacteroides dorei strain: DSM17855 for biotransformation. The drug concentrations were measured before and after a 12-h incubation by liquid-chromatography-coupled mass spectrometry (LC–MS)
- experimentalParameters: phocaeicola dorei, 2 µM

| molecule | Bacterial Biotransformation |
| --- | --- |
| Nc1nc(N)nc(-c2cc(Cl)ccc2Cl)n1.O=C(O)/C=C\C(=O)O [IRSOGLADINE MALEATE] | Compound metabolized |
| CC(=O)OCC(CCn1cnc2cnc(N)nc21)COC(C)=O | Compound metabolized |
| c1ccc([C@H]2CN3CCSC3=N2)cc1 | Compound metabolized |

====

- experimentalParameters: bacteroides fragilis, 12 h, 2 µM
- Description: The drug is tested on Bacteroides fragilis strain: 3397 (T10) for biotransformation. The drug concentrations were measured before and after a 12-h incubation by liquid-chromatography-coupled mass spectrometry (LC–MS)
assayReadout: Bacterial Biotransformation

Some entries whose results are on file:
| compound | result |
| --- | --- |
| CCOC(=O)[C@H](CCc1ccccc1)N[C@@H](C)C(=O)N1Cc2ccccc2C[C@H]1C(=O)O | Compound metabolized |
| Cc1nc2n(c(=O)c1CCN1CCC(c3noc4cc(F)ccc34)CC1)CCCC2O (stereo unspecified) | Compound metabolized |
| C=CCc1ccccc1OCC(O)CNC(C)C (stereo unspecified) | Compound NOT metabolized |
| CS(=O)(=O)O.OC(CCN1CCCCC1)(c1ccccc1)c1ccccc1 [PRIDINOL METHANESULFONATE] | Compound NOT metabolized |
| CC(C)(C)NCC(O)c1cc(Cl)c(N)c(Cl)c1 (stereo unspecified) | Compound NOT metabolized |

## Input Which measured Bacterial Biotransformation value corresponds to COc1cc2c(c(OC)c1OC)-c1ccc(OC)c(=O)cc1[C@@H](NC(C)=O)CC2 ?
## Output Compound metabolized

====

- assayDetails: The drug is tested on Parabacteroides merdae strain: ATCC43184 for biotransformation. The drug concentrations were measured before and after a 12-h incubation by liquid-chromatography-coupled mass spectrometry (LC–MS)
- experimentalParameters: 2 µM
assayReadout: Bacterial Biotransformation

Some entries whose results are on file:
| compound | Bacterial Biotransformation |
| --- | --- |
| CC(=O)O[C@]1(C(C)=O)CC[C@H]2[C@@H]3C=C(Cl)C4=CC(=O)[C@@H]5C[C@@H]5[C@]4(C)[C@H]3CC[C@@]21C [CYPROTERONE ACETATE] | Compound NOT metabolized |
| CSc1ccc2c(c1)C(N1CCN(C)CC1)Cc1ccccc1S2.O=C(O)/C=C\C(=O)O (centres undefined) | Compound NOT metabolized |
| C=CCc1ccccc1OCC(O)CNC(C)C (centres undefined) [ALPRENOLOL] | Compound NOT metabolized |
| CC(=O)OCC(=O)[C@@]1(OC(C)=O)[C@@H](C)C[C@H]2[C@@H]3C[C@H](F)C4=CC(=O)C=C[C@]4(C)[C@@]3(F)[C@@H](O)C[C@@]21C [DIFLORASONE DIACETATE] | Compound metabolized |
| CCC(=O)NCC[C@@H]1CCc2ccc3c(c21)CCO3 [RAMELTEON] | Compound metabolized |

## Input Which measured Bacterial Biotransformation value corresponds to O=C1N=C([O-])NC1(c1ccccc1)c1ccccc1.[Na+] [PHENYTOIN SODIUM] ?
## Output Compound metabolized

## Input Which measured Bacterial Biotransformation value corresponds to CNNCc1ccc(C(=O)NC(C)C)cc1 [PROCARBAZINE] ?
## Output Compound NOT metabolized

## Input Which measured Bacterial Biotransformation value corresponds to CN(C)CCOC(c1ccc(Cl)cc1)c1ccccn1.O=C(O)/C=C\C(=O)O (centres undefined) [CARBINOXAMINE MALEATE] ?
## Output Compound NOT metabolized

## Input Which measured Bacterial Biotransformation value corresponds to CCC(C)n1ncn(-c2ccc(N3CCN(c4ccc(OCC5COC(Cn6cncn6)(c6ccc(Cl)cc6Cl)O5)cc4)CC3)cc2)c1=O (centres undefined) [ITRACONAZOLE] ?
## Output Compound NOT metabolized

====

- experimentalParameters: bacteroides stercoris, 12 h, 2 µM
- Description: The drug is tested on Bacteroides stercoris strain: ATCC43183 for biotransformation. The drug concentrations were measured before and after a 12-h incubation by liquid-chromatography-coupled mass spectrometry (LC–MS)
assayReadout: Bacterial Biotransformation

| molecule | assayReadout | result |
| --- | --- | --- |
| O=c1n(CCCN2CCN(c3cccc(Cl)c3)CC2)nc2ccccn12 [TRAZODONE] | Bacterial Biotransformation | Compound NOT metabolized |
| CNC(=C[N+](=O)[O-])NCCSCc1ccc(CN(C)C)o1 [RANITIDINE] | Bacterial Biotransformation | Compound NOT metabolized |
| CC(CN(C)C)CN1c2ccccc2CCc2ccccc21.O=C(O)/C=C\C(=O)O (configuration not stated) [TRIMIPRAMINE MALEATE] | Bacterial Biotransformation | Compound NOT metabolized |
| NS(=O)(=O)c1cc2c(cc1Cl)N=C(CSCc1ccccc1)NS2(=O)=O [BENZTHIAZIDE] | Bacterial Biotransformation | Compound NOT metabolized |
| CCCN1C[C@H](CSC)C[C@@H]2c3cccc4[nH]cc(c34)C[C@H]21.CS(=O)(=O)O [PERGOLIDE MESYLATE] | Bacterial Biotransformation | Compound NOT metabolized |

## Input Which measured Bacterial Biotransformation value corresponds to OCCN(CCO)c1nc(N2CCCCC2)c2nc(N(CCO)CCO)nc(N3CCCCC3)c2n1 [DIPYRIDAMOLE] ?
## Output Compound NOT metabolized

====

- experimentalParameters: bacteroides thetaiotaomicron, 12 h, 2 µM
- Description: The drug is tested on Bacteroides thetaiotaomicron strain: 7330 for biotransformation. The drug concentrations were measured before and after a 12-h incubation by liquid-chromatography-coupled mass spectrometry (LC–MS)
assayReadout: Bacterial Biotransformation

Some entries whose results are on file:
| compound | Bacterial Biotransformation |
| --- | --- |
| NC12CC3CC(CC(C3)C1)C2 [AMANTADINE] | Compound metabolized |
| COC(=O)C(c1ccccc1)C1CCCCN1 (stereo not given) [METHYLPHENIDATE] | Compound NOT metabolized |
| COc1c(C)c2c(c(O)c1C/C=C(\C)CCC(=O)OCCN1CCOCC1)C(=O)OC2 [MYCOPHENOLATE MOFETIL] | Compound metabolized |
| CC1=C(CC(=O)O)c2cc(F)ccc2/C1=C\c1ccc([S+](C)[O-])cc1 (stereo not given) | Compound NOT metabolized |

## Input Which measured Bacterial Biotransformation value corresponds to Cc1ccc(S(=O)(=O)NC(=O)NN2CCCCCC2)cc1 [TOLAZAMIDE] ?
## Output Compound metabolized

## Input Which measured Bacterial Biotransformation value corresponds to CN[C@H]1CC[C@@H](c2ccc(Cl)c(Cl)c2)c2ccccc21 [SERTRALINE] ?
## Output Compound NOT metabolized

====

- experimentalParameters: bacteroides intestinalis, 12 h, 2 µM
- Description: The drug is tested on Bacteroides intestinalis strain: DSM17393 for biotransformation. The drug concentrations were measured before and after a 12-h incubation by liquid-chromatography-coupled mass spectrometry (LC–MS)
assayReadout: Bacterial Biotransformation

| compound | Bacterial Biotransformation |
| --- | --- |
| O=C1CN2Cc3c(ccc(Cl)c3Cl)N=C2N1 [ANAGRELIDE] | Compound NOT metabolized |
| O=C(O)c1cc(/N=N/c2ccc(S(=O)(=O)Nc3ccccn3)cc2)ccc1O | Compound metabolized |
| Cc1nc(-c2ccc(OCC(C)C)c(C#N)c2)sc1C(=O)O | Compound NOT metabolized |
| CCOC(=O)[C@H](CCc1ccccc1)N[C@@H](C)C(=O)N1CCC[C@H]1C(=O)O.O=C(O)/C=C\C(=O)O [ENALAPRIL MALEATE] | Compound NOT metabolized |
| CN(C)C(=O)Oc1cc(OC(=O)N(C)C)cc(C(O)CNC(C)(C)C)c1 (stereo unspecified) | Compound NOT metabolized |
| CC(C)(C)NCC(O)COc1cccc2c1CC(O)C(O)C2 (stereo unspecified) | Compound NOT metabolized |

## Input Which measured Bacterial Biotransformation value corresponds to Cc1ccc(-c2cc(C(F)(F)F)nn2-c2ccc(S(N)(=O)=O)cc2)cc1 ?
## Output Compound NOT metabolized

## Input Which measured Bacterial Biotransformation value corresponds to COc1cc(C(=O)NCc2ccc(OCCN(C)C)cc2)cc(OC)c1OC [TRIMETHOBENZAMIDE] ?
## Output Compound NOT metabolized

## Input Which measured Bacterial Biotransformation value corresponds to CN(C)CCc1c[nH]c2ccc(CS(=O)(=O)N3CCCC3)cc12 ?
## Output Compound NOT metabolized

## Input Which measured Bacterial Biotransformation value corresponds to CN1C[C@H](C(=O)N[C@]2(C)O[C@@]3(O)[C@@H]4CCCN4C(=O)[C@H](Cc4ccccc4)N3C2=O)C=C2c3cccc4[nH]cc(c34)C[C@H]21.CN1C[C@H](C(=O)N[C@]2(C)O[C@@]3(O)[C@@H]4CCCN4C(=O)[C@H](Cc4ccccc4)N3C2=O)C=C2c3cccc4[nH]cc(c34)C[C@H]21.O=C(O)C(O)C(O)C(=O)O [ERGOTAMINE TARTRATE] ?
## Output Compound metabolized

## Input Which measured Bacterial Biotransformation value corresponds to CCS(=O)(=O)CCn1c([N+](=O)[O-])cnc1C ?
## Output Compound metabolized

## Input Which measured Bacterial Biotransformation value corresponds to COC(=O)[C@H]1[C@H]2C[C@@H]3c4[nH]c5cc(OC)ccc5c4CCN3C[C@H]2C[C@@H](OC(=O)c2cc(OC)c(OC)c(OC)c2)[C@@H]1OC ?
## Output Compound NOT metabolized

## Input Which measured Bacterial Biotransformation value corresponds to Nc1c2c(nc3ccccc13)CCCC2 ?
## Output Compound NOT metabolized

## Input Which measured Bacterial Biotransformation value corresponds to CCN(CC)CCOCCOC(=O)C1(c2ccccc2)CCCC1.O=C(O)CC(O)(CC(=O)O)C(=O)O [CARBETAPENTANE CITRATE] ?
## Output Compound metabolized

Reference for the values: ChEMBL document CHEMBL5303573
